Value source: patent US20230065740A1

Could you please report measured IC50 for the items listed next?
Assayed Target: CDK2-CYCLINA (Homo sapiens)
Construct: purchased Millipore
Assay Summary: Microfluidic LabChip kinase inhibition assay, CDK2-CyclinA
Type: biochemical
Particulars: Table 3a; 50 μM ATP
Answers are plain numbers, in µM.

[[record]]
compound = "CN1CCN(c2ccc(Nc3ncc4c(n3)N(C3CCCC3)C3(CC(=O)NC3=O)C4)cc2)CC1 (single isomer, unassigned) [Compound C137]"
assayed_target = "CDK2-CYCLINA (Homo sapiens)"
numeric_value = 3.33


Your task in this section: give IC50 for each listed record.
1. CC(C)N1CCN(c2ccc(Nc3ncc4c(n3)N(C3CCCC3)C3(CC(=O)NC3=O)C4)cc2)CC1 (stereo not drawn)
2. CC(C)c1ccc(Nc2ncc3c(n2)N(C2CCCC2)C2(CCNC2=O)C3)cc1 (stereo not drawn)

1. 2.28
2. 5.01
